Entries and their microsomal CLint at 1 µM values follow.
assay method text: Intrinsic clearance in mouse liver microsomes at 1 uM in presence of NADPH generating system assessed per mg protein by LC-MS/MS analysis
Type: ADME, Microsome
condition details: read-out: CLH
Report only the number, with the unit µL/min/mg understood.

Worked examples, 3 molecules total:
> print(dat)
                                 cpd.smiles  scale.unit  numeric.value
1  CC(C)(O)c1ccc(N2Cc3c(ccnc3-c3ccc(F)cc3OCC(F)(F)F)C2=O)cc1   µL/min/mg              6
2   COc1ccccc1-c1nccc2c1CN(c1cccc(C)c1)C2=O   µL/min/mg            584
3   COc1ccccc1-c1nccc2c1CN(c1ccc(F)cc1)C2=O   µL/min/mg            509

With those in mind, consider the next molecule.
Please give measured microsomal CLint at 1 µM of the following entry: COc1cc(F)ccc1-c1nccc2c1CN(c1ccc(F)cc1)C2=O
131
